Every entry's value here was drawn from ChEMBL document CHEMBL1131059.

Item-by-item account of pKi
Target chain: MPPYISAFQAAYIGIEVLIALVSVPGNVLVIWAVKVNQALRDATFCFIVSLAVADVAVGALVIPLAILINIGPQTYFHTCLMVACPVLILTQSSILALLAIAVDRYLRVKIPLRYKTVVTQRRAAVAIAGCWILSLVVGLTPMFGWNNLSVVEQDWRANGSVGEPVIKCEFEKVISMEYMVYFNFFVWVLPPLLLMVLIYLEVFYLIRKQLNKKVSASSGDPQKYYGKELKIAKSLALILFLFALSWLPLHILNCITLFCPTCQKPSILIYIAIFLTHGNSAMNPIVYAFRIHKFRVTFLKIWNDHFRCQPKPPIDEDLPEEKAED
Answer as the number alone; pKi is minus log10 of concentration in mol/L.

compound	readout_type	numeric_result
CCNC(=O)[C@H]1O[C@@H](n2cnc3c(NC(=O)Nc4cccc(Cl)c4)nc(Cl)nc32)[C@H](O)[C@@H]1O	pKi	7.05
CCCCC#Cc1nc(NC(=O)Nc2cccc(Cl)c2)c2ncn([C@@H]3O[C@H](C(=O)NCC)[C@@H](O)[C@H]3O)c2n1	pKi	5.69
CCNC(=O)[C@H]1O[C@@H](n2cnc3c(NC(=O)Nc4ccc(OC)cc4)nc(C#CC(O)c4ccccc4)nc32)[C@H](O)[C@@H]1O (stereo partly drawn)	pKi	7.12
CCCCC#Cc1nc(NC(=O)Nc2ccc(OC)cc2)c2ncn([C@@H]3O[C@H](C(=O)NCC)[C@@H](O)[C@H]3O)c2n1	pKi	6.37
CCNC(=O)[C@H]1O[C@@H](n2cnc3c(NC(=O)Nc4ccc(OC)cc4)nc(Cl)nc32)[C@H](O)[C@@H]1O	pKi	7.66
CCNC(=O)[C@H]1O[C@@H](n2cnc3c(NC(=O)Nc4ccc(NS(=O)(=O)c5ncccn5)cc4)ncnc32)[C@H](O)[C@@H]1O	pKi	6.14
CCNC(=O)[C@H]1O[C@@H](n2cnc3c(NC(=O)Nc4cccc(Cl)c4)nc(C#Cc4ccccc4)nc32)[C@H](O)[C@@H]1O	pKi	5.88

// below: pKi requested for another compound
Specify measured pKi for CCNC(=O)[C@H]1OC(n2cnc3c(NC(=O)Nc4ccc(NS(=O)(=O)c5cc(C)on5)cc4)ncnc32)[C@H](O)[C@@H]1O (stereo partly drawn) .
6.05

* * *

assayed_target: Adenosine receptors; A1 & A3 (Rattus norvegicus) (UniProt P25099+P28647)
Sequence (P28647 whole entry, looked up, one chain of several): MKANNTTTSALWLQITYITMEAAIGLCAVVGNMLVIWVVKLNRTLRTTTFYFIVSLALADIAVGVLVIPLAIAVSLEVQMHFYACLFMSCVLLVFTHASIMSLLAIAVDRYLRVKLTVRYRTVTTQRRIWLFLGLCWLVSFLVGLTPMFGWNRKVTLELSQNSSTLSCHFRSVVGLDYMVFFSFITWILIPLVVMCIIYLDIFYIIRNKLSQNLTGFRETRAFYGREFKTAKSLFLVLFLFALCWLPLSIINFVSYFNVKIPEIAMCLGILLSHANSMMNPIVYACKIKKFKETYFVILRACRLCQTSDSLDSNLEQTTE
test: Selectivity for binding affinity towards A1 adenosine receptor in rat brain membrane and rat A3 receptor expressed in CHO cells.
Assay type: cell-based
readout_type: Ratio
Respond using a number only.

// solved cases for Ratio follow
compound	numeric_result
CCNC(=O)[C@H]1O[C@@H](n2cnc3c(NC(=O)c4ccccc4Cl)ncnc32)[C@H](O)[C@@H]1O	1.6
CCNC(=O)[C@H]1OC(n2cnc3c(NC(=O)Nc4ccc(NS(=O)(=O)c5cc(C)on5)cc4)ncnc32)[C@H](O)[C@@H]1O (some centres undefined)	5.8
CCNC(=O)[C@H]1O[C@@H](n2cnc3c(NC(=O)NCCc4ccc(OC)c(OC)c4)ncnc32)[C@H](O)[C@@H]1O	4.3

Specify measured Ratio for `CCNC(=O)[C@H]1O[C@@H](n2cnc3c(NC(=O)Nc4ccc(OC)cc4)nc(C#CCCCc4ccccc4)nc32)[C@H](O)[C@@H]1O` .
160

* * *

Item-by-item account of Ratio
assayed_target: Adenosine receptors; A1 & A3 (Rattus norvegicus) (UniProt P25099+P28647)
test: Selectivity for binding affinity towards A1 adenosine receptor in rat brain membrane and rat A3 receptor expressed in CHO cells.
Format: cell-based
Respond using a number only.

compound	Ratio
CCCOc1ccc(NC(=O)Nc2ncnc3c2ncn3C2O[C@H](C(=O)NCC)[C@@H](O)[C@H]2O)cc1 (some centres undefined)	2.3
CCNC(=O)[C@H]1O[C@@H](n2cnc3c(NC(=O)Nc4ccc(NS(=O)(=O)c5ccccn5)cc4)ncnc32)[C@H](O)[C@@H]1O	5.4
CCNC(=O)[C@H]1O[C@@H](n2cnc3c(NC(=O)Nc4cccc(Cl)c4)nc(C#CC(O)c4ccccc4)nc32)[C@H](O)[C@@H]1O (some centres undefined)	1.2

// below: Ratio requested for another compound
Specify measured Ratio for `CCNC(=O)[C@H]1O[C@@H](n2cnc3c(NC(=O)c4ccccc4)ncnc32)[C@H](O)[C@@H]1O` .
0.3

* * *

Adenosine receptor A2a (Rattus norvegicus, UniProt P30543) Ki data
Sequence (P30543 whole entry): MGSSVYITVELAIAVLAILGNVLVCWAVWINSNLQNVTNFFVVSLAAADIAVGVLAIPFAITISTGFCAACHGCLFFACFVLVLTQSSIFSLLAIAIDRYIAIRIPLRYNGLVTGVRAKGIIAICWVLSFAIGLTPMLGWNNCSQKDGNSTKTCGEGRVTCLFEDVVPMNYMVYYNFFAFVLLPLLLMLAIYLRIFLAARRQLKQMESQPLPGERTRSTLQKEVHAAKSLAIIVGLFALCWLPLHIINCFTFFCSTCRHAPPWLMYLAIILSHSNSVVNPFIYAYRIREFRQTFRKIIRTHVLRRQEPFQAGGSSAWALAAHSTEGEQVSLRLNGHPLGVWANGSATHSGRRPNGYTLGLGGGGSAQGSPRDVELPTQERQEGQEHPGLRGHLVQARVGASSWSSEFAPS
Provide only the numeric value, understood in nM.

// solved cases for Ki follow
CCNC(=O)[C@H]1O[C@@H](n2cnc3c(NC(=O)Nc4ccc(OC)cc4)nc(I)nc32)[C@H](O)[C@@H]1O 260
CCNC(=O)[C@H]1O[C@@H](n2cnc3c(NC(=O)Nc4cccc(Cl)c4)nc(C#Cc4ccccc4)nc32)[C@H](O)[C@@H]1O 48700
CCNC(=O)[C@H]1O[C@@H](n2cnc3c(NC(=O)Nc4ccc(NS(=O)(=O)c5ncccn5)cc4)ncnc32)[C@H](O)[C@@H]1O 16.8

// below: Ki requested for another compound
# lookup: Adenosine receptor A2a (Rattus norvegicus, UniProt P30543) Ki, key = `CCNC(=O)[C@H]1O[C@@H](n2cnc3c(NC(=O)NCCc4ccc(OC)c(OC)c4)ncnc32)[C@H](O)[C@@H]1O`
1570

* * *

Item-by-item account of Ratio
assayed_target: Adenosine receptors; A1 & A3 (Rattus norvegicus) (UniProt P25099+P28647)
test: Selectivity for binding affinity towards A1 adenosine receptor in rat brain membrane and rat A3 receptor expressed in CHO cells.
Format: cell-based
Respond using a number only.

// solved cases for Ratio follow
CCNC(=O)[C@H]1O[C@@H](n2cnc3c(NC(=O)Nc4ccc(OC)cc4)nc(C#Cc4ccccc4)nc32)[C@H](O)[C@@H]1O 31
CCNC(=O)[C@H]1O[C@@H](n2cnc3c(NC(=O)N[C@H](C)c4ccccc4)ncnc32)[C@H](O)[C@@H]1O 27
CCNC(=O)[C@H]1O[C@@H](n2cnc3c(NC(=O)Nc4cc(C)on4)ncnc32)[C@H](O)[C@@H]1O 0.27

Specify measured Ratio for `CCNC(=O)[C@H]1O[C@@H](n2cnc3c(NC(=O)c4ccc(OC)cc4)ncnc32)[C@H](O)[C@@H]1O` .
0.1

Specify measured Ratio for `CCNC(=O)[C@H]1O[C@@H](n2cnc3c(NC(=O)Nc4ccc(NS(=O)(=O)c5ncccn5)cc4)ncnc32)[C@H](O)[C@@H]1O` .
1.7

Specify measured Ratio for `CCNC(=O)[C@H]1O[C@@H](n2cnc3c(NC(=O)Nc4cccc(Cl)c4)nc(Cl)nc32)[C@H](O)[C@@H]1O` .
1.2
